Known survival at 1000 ppm of a selection of molecules
# assay name: Toxicity in brine shrimp at 1000 ppm
# Format: organism-based
# condition description: artemia, in vivo
Record the value in %, omitting the unit from your answer.

C/C(C[C@@H](O)[C@@H](C)[C@H]1CC[C@H]2[C@@H]3CC=C4C[C@@H](O)C[C@H](O)[C@]4(C)[C@H]3[C@@H](O)C[C@]12C)=C(/C)C(=O)O[C@@H]1O[C@H](CO)[C@@H](O)[C@H](O)[C@H]1O = 100

Shifting focus to the molecule that follows.
Ask | Supply recorded survival at 1000 ppm for "CC(=O)OC[C@H]1O[C@@H](OC(=O)/C(C)=C(\C)C[C@@H](O)[C@@H](C)[C@H]2CC[C@H]3[C@@H]4CC=C5C[C@@H](O)C[C@H](O)[C@]5(C)[C@H]4[C@@H](O)C[C@]23C)[C@H](O[C@@H]2O[C@H](CO)[C@@H](O)[C@H](O)[C@H]2O)[C@@H](O)[C@@H]1O" here.
Reply | 100
